# Tested on: Trifolium pratense
# Assay notes: Phytotoxicity against Trifolium pratense (red clover) assessed as inhibition of seed respiration during germination after 72 hr
# Assay type: functional, organism-based
# Conditions used: read-out: I50
Experimental readout: pIC50
By convention, pIC50 is the negative base-10 log of a molar concentration.

Ask: I'd like to know its pIC50. The compound in question is C=C(C)[C@H]1Cc2c(ccc(C(C)=O)c2O)O1 [4-HYDROXY TREMETONE]
Result: 4.66

Ask: Return reported pIC50; argument: CC(=O)c1ccc(O)cc1 [4-HYDROXYACETOPHENONE]
Result: 4.28

Ask: So what's the measured pIC50 for this one? CC(=O)c1ccc2c(c1)CC(C1(C)CO1)O2 (stereo not given)
Result: 4.31

Ask: Fill blank: measured pIC50 of the compound COc1ccc(C(C)=O)cc1 is ____.
Result: 4.24

Ask: // lookup pIC50 for CC(=O)c1ccc2c(c1O)C[C@H](C1(C)CO1)O2 (stereo not given in full)
Result: 5.00
